molecular target: T1, AAV5 (adeno-associated virus 5, Assembled 60-mer capsid of VP1/VP2/VP3 (nested products of one cap gene), amine-coupled to a CM5 chip; the letters give one VP1 subunit only.); experiment: SPR, AAV amine-coupled to CM5 chip
T1 construct: also called adeno-associated virus serotype 5
Experimental readout: kon (M⁻¹ s⁻¹)
Numbers only, in M⁻¹ s⁻¹.

Binder	Value units	kon
A4-C2 (VHH) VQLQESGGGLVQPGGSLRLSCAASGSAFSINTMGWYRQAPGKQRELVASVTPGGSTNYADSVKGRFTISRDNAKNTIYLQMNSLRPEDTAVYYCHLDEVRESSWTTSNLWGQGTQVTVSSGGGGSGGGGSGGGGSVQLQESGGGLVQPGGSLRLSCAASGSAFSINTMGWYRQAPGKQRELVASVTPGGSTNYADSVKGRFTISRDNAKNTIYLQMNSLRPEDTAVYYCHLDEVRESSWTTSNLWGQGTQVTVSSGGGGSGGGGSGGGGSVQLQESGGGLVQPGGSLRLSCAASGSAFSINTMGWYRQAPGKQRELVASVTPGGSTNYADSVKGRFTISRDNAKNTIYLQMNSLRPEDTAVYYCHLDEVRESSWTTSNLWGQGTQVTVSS	M⁻¹ s⁻¹	194000

Please find the next binder below.
In: Quick check: kon of A4-C1 (VHH) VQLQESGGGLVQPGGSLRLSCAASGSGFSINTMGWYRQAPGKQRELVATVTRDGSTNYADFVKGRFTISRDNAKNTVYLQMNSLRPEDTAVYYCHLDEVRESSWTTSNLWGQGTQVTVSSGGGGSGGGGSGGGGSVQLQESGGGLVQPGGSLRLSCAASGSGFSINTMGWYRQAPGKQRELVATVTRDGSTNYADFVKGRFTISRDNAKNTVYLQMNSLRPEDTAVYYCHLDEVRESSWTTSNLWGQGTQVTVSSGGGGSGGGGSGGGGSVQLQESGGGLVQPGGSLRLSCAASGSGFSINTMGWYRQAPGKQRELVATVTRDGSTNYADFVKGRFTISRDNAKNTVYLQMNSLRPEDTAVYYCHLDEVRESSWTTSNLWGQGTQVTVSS ?
Out: 104000
